Reference for the values: PubChem BioAssay AID1963965

# viability, T/C per entry
- System: 996289-038-R-J1-PDC spheroid viability
- method-notes: Anticancer human tumor 996289-038-R-J1-PDC patient-derived colon adenocarcinoma cell line growth inhibition [PI3K]
- assay-setup: second compound 10 µM; first compound 0.1 µM; hits give low values; spheroids with HUVEC and MSC
observable: viability, T/C (%)

compound	observed
Cn1ncnc1[C@H]1c2n[nH]c(=O)c3cc(F)cc(c23)N[C@@H]1c1ccc(F)cc1 + Cc1nc(NC(=O)N2CCCC2C(N)=O)sc1-c1ccnc(C(C)(C)C(F)(F)F)c1	40.8
C#Cc1c(F)ccc2cc(O)cc(-c3ncc4c(N5CC6CCC(C5)N6)nc(OCC56CCCN5CC(F)C6)nc4c3F)c12 (stereo not drawn) + Cc1nc(NC(=O)N2CCCC2C(N)=O)sc1-c1ccnc(C(C)(C)C(F)(F)F)c1	35.6
CC(C)NCC(C(=O)N1CCN(c2ncnc3c2C(C)CC3O)CC1)c1ccc(Cl)cc1 (stereo not drawn) + CC(Nc1ncnc2nc[nH]c12)c1cc2cccc(Cl)c2c(=O)n1-c1ccccc1	78.7

====

Readings of viability, T/C for the listed molecules
- Test system: 996289-038-R-J1-PDC spheroid viability
- method-notes: Anticancer human tumor 996289-038-R-J1-PDC cell line growth inhibition [PI3K];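 further: luminescence used as a proxy for viable cell amount; spheroids exposed to compounds for seven days before viability read; percent viability relative to DMSO vehicle control as 100%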
- assay-setup: second compound 0.00316 µM; first compound 3.16 µM; hits give low values; spheroids with HUVEC and MSC

molecule	viability, T/C (%)
CC1(C)CCC(Nc2ncc(C(F)(F)F)c(-c3c[nH]c4c(P(C)(C)=O)c(C#N)ccc34)n2)CN1 (stereo not given) + CC(Nc1ccc2c(c1)OCCn1cc(N3C(=O)OCC3C(F)F)nc1-2)C(N)=O	97.1
C[C@@H](NC(=O)c1ncnc(N)c1Cl)c1ncc(C(=O)Nc2cc(C(F)(F)F)c(Cl)cn2)s1 + CC(Nc1ccc2c(c1)OCCn1cc(N3C(=O)OCC3C(F)F)nc1-2)C(N)=O	135
C=CC(=O)N1CCN(c2nc(=O)n(-c3c(C)ccnc3C(C)C)c3nc(-c4c(O)cccc4F)c(F)cc23)C(C)C1 (stereo not given) + COc1c(OCCCN2CCOCC2)ccc2c3n(c(=NC(=O)c4cnc(N)nc4)nc12)CCN3	137
Cn1nccc1Nc1nccc(-c2ccn(C(CO)c3ccc(Cl)c(F)c3)c(=O)c2)n1 (stereo not given) + COc1c(OCCCN2CCOCC2)ccc2c3n(c(=NC(=O)c4cnc(N)nc4)nc12)CCN3	86.4
Cn1ncc(Cl)c1-c1cc(C(=O)NC(CN)Cc2cccc(F)c2)sc1Cl (stereo not given) + COc1c(OCCCN2CCOCC2)ccc2c3n(c(=NC(=O)c4cnc(N)nc4)nc12)CCN3	56.8

====

Catalogue of viability, T/C values
- Test system: 996289-038-R-J1-PDC spheroid viability
- method-notes: Anticancer human tumor 996289-038-R-J1-PDC cell line growth inhibition [PI3K];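 further: luminescence used as a proxy for viable cell amount; spheroids exposed to compounds for seven days before viability read; percent viability relative to DMSO vehicle control as 100%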
- assay-setup: second compound 0.1 µM; first compound 0.1 µM; hits give low values; spheroids with HUVEC and MSC

compound	measurement-units	viability, T/C
CC(C)n1nc(-c2ccc3oc(N)nc3c2)c2c(N)ncnc21 + COc1c(OCCCN2CCOCC2)ccc2c3n(c(=NC(=O)c4cnc(N)nc4)nc12)CCN3	%	16.1
CC1(C)CCC(CN2CCN(c3ccc(C(=O)NS(=O)(=O)c4ccc(NCC5CCOCC5)c([N+](=O)[O-])c4)c(Oc4cnc5[nH]ccc5c4)c3)CC2)=C(c2ccc(Cl)cc2)C1 + CC(Nc1ncnc2nc[nH]c12)c1cc2cccc(Cl)c2c(=O)n1-c1ccccc1	%	96.9
Cn1ncc(Cl)c1-c1cc(C(=O)NC(CN)Cc2cccc(F)c2)sc1Cl (configuration not stated) + Cc1nc(NC(=O)N2CCCC2C(N)=O)sc1-c1ccnc(C(C)(C)C(F)(F)F)c1	%	80.3
CC(C)n1nc(-c2ccc3oc(N)nc3c2)c2c(N)ncnc21 + Cc1nc(NC(=O)N2CCCC2C(N)=O)sc1-c1ccnc(C(C)(C)C(F)(F)F)c1	%	25.4
CC(C)NCC(C(=O)N1CCN(c2ncnc3c2C(C)CC3O)CC1)c1ccc(Cl)cc1 (configuration not stated) + Cc1nc(NC(=O)N2CCCC2C(N)=O)sc1-c1ccnc(C(C)(C)C(F)(F)F)c1	%	81
CC(C)n1nc(-c2ccc3oc(N)nc3c2)c2c(N)ncnc21 + CC(Nc1ncnc2nc[nH]c12)c1cc2cccc(Cl)c2c(=O)n1-c1ccccc1	%	34.5
C#Cc1c(F)ccc2cc(O)cc(-c3ncc4c(N5CC6CCC(C5)N6)nc(OCC56CCCN5CC(F)C6)nc4c3F)c12 (configuration not stated) + Cc1nc(NC(=O)N2CCCC2C(N)=O)sc1-c1ccnc(C(C)(C)C(F)(F)F)c1	%	78.5
CC(Cn1ccc(-c2ccc(C#N)c(Cl)c2)n1)NC(=O)c1cc(C(C)O)[nH]n1 (configuration not stated) + Cc1nc(NC(=O)N2CCCC2C(N)=O)sc1-c1ccnc(C(C)(C)C(F)(F)F)c1	%	89.7
Cn1ncc(Cl)c1-c1cc(C(=O)NC(CN)Cc2cccc(F)c2)sc1Cl (configuration not stated) + CC(Nc1ccc2c(c1)OCCn1cc(N3C(=O)OCC3C(F)F)nc1-2)C(N)=O	%	80.2
Cn1nccc1Nc1nccc(-c2ccn(C(CO)c3ccc(Cl)c(F)c3)c(=O)c2)n1 (configuration not stated) + Cc1nc(NC(=O)N2CCCC2C(N)=O)sc1-c1ccnc(C(C)(C)C(F)(F)F)c1	%	96.8
CC1(C)CCC(Nc2ncc(C(F)(F)F)c(-c3c[nH]c4c(P(C)(C)=O)c(C#N)ccc34)n2)CN1 (configuration not stated) + COc1c(OCCCN2CCOCC2)ccc2c3n(c(=NC(=O)c4cnc(N)nc4)nc12)CCN3	%	53.4
CC(C)n1nc(-c2ccc3oc(N)nc3c2)c2c(N)ncnc21 + CC(Nc1ccc2c(c1)OCCn1cc(N3C(=O)OCC3C(F)F)nc1-2)C(N)=O	%	23.4
CC1(C)CCC(Nc2ncc(C(F)(F)F)c(-c3c[nH]c4c(P(C)(C)=O)c(C#N)ccc34)n2)CN1 (configuration not stated) + CC(Nc1ncnc2nc[nH]c12)c1cc2cccc(Cl)c2c(=O)n1-c1ccccc1	%	87.3
CCN1CCN(Cc2ccc(Nc3ncc(F)c(-c4cc(F)c5nc(C)n(C(C)C)c5c4)n3)nc2)CC1 + COc1c(OCCCN2CCOCC2)ccc2c3n(c(=NC(=O)c4cnc(N)nc4)nc12)CCN3	%	47.3
CC(=O)c1c(C)c2cnc(Nc3ccc(N4CCNCC4)cn3)nc2n(C2CCCC2)c1=O + COc1c(OCCCN2CCOCC2)ccc2c3n(c(=NC(=O)c4cnc(N)nc4)nc12)CCN3	%	49.8
C[C@@H](NC(=O)c1ncnc(N)c1Cl)c1ncc(C(=O)Nc2cc(C(F)(F)F)c(Cl)cn2)s1 + CC(Nc1ccc2c(c1)OCCn1cc(N3C(=O)OCC3C(F)F)nc1-2)C(N)=O	%	93.1
CNC(=O)c1ccc(N2C(=S)N(c3ccc(C#N)c(C(F)(F)F)c3)C(=O)C2(C)C)cc1F + COc1c(OCCCN2CCOCC2)ccc2c3n(c(=NC(=O)c4cnc(N)nc4)nc12)CCN3	%	66.2
CC(Cn1ccc(-c2ccc(C#N)c(Cl)c2)n1)NC(=O)c1cc(C(C)O)[nH]n1 (configuration not stated) + CC(Nc1ncnc2nc[nH]c12)c1cc2cccc(Cl)c2c(=O)n1-c1ccccc1	%	97.3
CC(Cn1ccc(-c2ccc(C#N)c(Cl)c2)n1)NC(=O)c1cc(C(C)O)[nH]n1 (configuration not stated) + COc1c(OCCCN2CCOCC2)ccc2c3n(c(=NC(=O)c4cnc(N)nc4)nc12)CCN3	%	56.6
C=CC(=O)N1CCN(c2nc(=O)n(-c3c(C)ccnc3C(C)C)c3nc(-c4c(O)cccc4F)c(F)cc23)C(C)C1 (configuration not stated) + CC(Nc1ccc2c(c1)OCCn1cc(N3C(=O)OCC3C(F)F)nc1-2)C(N)=O	%	81.9
Cn1nccc1Nc1nccc(-c2ccn(C(CO)c3ccc(Cl)c(F)c3)c(=O)c2)n1 (configuration not stated) + CC(Nc1ncnc2nc[nH]c12)c1cc2cccc(Cl)c2c(=O)n1-c1ccccc1	%	89.4
C[C@@H](NC(=O)c1ncnc(N)c1Cl)c1ncc(C(=O)Nc2cc(C(F)(F)F)c(Cl)cn2)s1 + Cc1nc(NC(=O)N2CCCC2C(N)=O)sc1-c1ccnc(C(C)(C)C(F)(F)F)c1	%	100
